These entries and their values trace back to patent US20190322643A1.

system: G9a (Homo sapiens, UniProt Q96KQ7)
Construct: endogenous in cells
Sequence (Q96KQ7 1-1210): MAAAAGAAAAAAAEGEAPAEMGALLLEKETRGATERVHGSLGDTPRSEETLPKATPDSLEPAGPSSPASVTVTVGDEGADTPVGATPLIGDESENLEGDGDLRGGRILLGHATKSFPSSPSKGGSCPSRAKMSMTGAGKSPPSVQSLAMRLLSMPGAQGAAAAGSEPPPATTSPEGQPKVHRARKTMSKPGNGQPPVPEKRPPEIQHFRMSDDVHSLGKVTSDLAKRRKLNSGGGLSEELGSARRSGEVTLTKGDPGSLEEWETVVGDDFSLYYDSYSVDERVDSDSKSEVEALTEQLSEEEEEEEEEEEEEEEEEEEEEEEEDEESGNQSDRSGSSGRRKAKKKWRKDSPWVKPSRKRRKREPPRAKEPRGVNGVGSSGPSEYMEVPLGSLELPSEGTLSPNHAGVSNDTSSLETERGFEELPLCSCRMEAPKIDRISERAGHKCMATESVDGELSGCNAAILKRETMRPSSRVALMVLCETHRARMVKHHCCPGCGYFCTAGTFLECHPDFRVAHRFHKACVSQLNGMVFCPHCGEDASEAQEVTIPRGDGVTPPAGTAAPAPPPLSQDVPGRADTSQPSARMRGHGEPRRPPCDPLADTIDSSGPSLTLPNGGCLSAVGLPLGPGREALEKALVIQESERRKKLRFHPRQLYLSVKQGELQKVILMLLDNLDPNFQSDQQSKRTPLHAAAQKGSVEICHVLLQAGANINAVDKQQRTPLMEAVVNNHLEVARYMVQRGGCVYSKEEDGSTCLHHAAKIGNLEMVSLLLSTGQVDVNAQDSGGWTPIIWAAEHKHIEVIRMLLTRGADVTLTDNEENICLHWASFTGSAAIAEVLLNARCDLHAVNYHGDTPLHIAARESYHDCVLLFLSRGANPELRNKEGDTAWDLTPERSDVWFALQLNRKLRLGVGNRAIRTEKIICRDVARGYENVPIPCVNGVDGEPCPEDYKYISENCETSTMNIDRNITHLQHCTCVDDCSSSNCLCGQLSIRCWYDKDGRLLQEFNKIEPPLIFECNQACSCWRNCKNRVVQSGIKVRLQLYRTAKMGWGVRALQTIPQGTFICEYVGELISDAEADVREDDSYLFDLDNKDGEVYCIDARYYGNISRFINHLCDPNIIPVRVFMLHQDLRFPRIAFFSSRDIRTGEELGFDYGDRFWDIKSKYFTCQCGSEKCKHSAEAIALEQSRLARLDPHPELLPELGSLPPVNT
protocol.details: H3K9Me2 cell immunofluorescence in-cell Western (ICW) assay
condition.details: MDA-MB-231 cell line, 48 h
Reported IC50 values for a set of compounds

- compound: "COc1cc2nc(NCCNC(=O)CCCCCCC(=O)NO)nc(NC3CCN(C(C)C)CC3)c2cc1OC [Compound 4a]"
  unit.descriptor: "µM"
  qualifier.operator: "="
  IC50: 74.2
- compound: "COc1cc2nc(NCCNC(=O)CCCCC(=O)NO)nc(NC3CCN(C)CC3)c2cc1OC [Compound 6]"
  unit.descriptor: "µM"
  qualifier.operator: ">"
  IC50: 100
- compound: "COc1ccc2c(NC3CCN(C)CC3)nc(NCCNC(=O)CCCC(=O)NO)nc2c1 [Compound 16a]"
  unit.descriptor: "µM"
  qualifier.operator: "="
  IC50: 45.7
- compound: "COc1cc2nc(NCCNC(=O)CCCCCCC(=O)NO)nc(NC3CCN(C)CC3)c2cc1OC [Compound 4]"
  unit.descriptor: "µM"
  qualifier.operator: "="
  IC50: 96.7
- compound: "COc1cc2nc(N3CCCN(C)CC3)nc(NC3CCN(C(=O)CCCCCC(=O)NO)CC3)c2cc1OC [Compound 20]"
  unit.descriptor: "µM"
  qualifier.operator: "="
  IC50: 97.5
